The measured values listed here are drawn from ChEMBL document CHEMBL1773003.

Provide the recorded log10 of CC50 for the entries that follow.
# System: MDCK
# protocolNotes: Cytotoxicity against MDCK cells after 72 hrs by MTS assay
# Type: cell-based, Canis lupus familiaris
# settings: dog
Friendly reminder: values = log10 of CC50, unit µM.

Recorded log10 of CC50 for C1C2C1C1C3C4C5C6CC6C4C14CNCC54C23 (stereo not given) with MDCK, please?
1.79

# get_value(readout= log10 of CC50, system= MDCK) for "CCN(CC)C12C3CCC4C3C3C(CCC31)C42"
2.08

GET /values?readout=log10 of CC50&system=MDCK&item= "NCC12C3CCC4C3C3C(CCC31)C42"
1.08

Quick check: log10 of CC50 on MDCK, item "NC(N)=NCC12CC3CC(CC1C3)C2" ?
1.02

Give recorded log10 of CC50 with MDCK for the following compound: CC(N)C12CC3CC(CC1C3)C2 (racemic)
2.41

State its log10 of CC50 on MDCK: "NCC12CC3CC(CC1C3)C2"
2.55

Requested read-out log10 of CC50, target or system MDCK, entry "CNCC12C3CCC4C3C3C(CCC31)C42"
2.35

What value of log10 of CC50 on MDCK does "CC12CC3CC1(C)CC3(CN)C2" have?
1.90

* * *

# measuredOn: UniProt P06821
# Type: cell-based
# settings: Influenza A virus (A/udorn/1972(H3N2)); Oocyte; 100 uM
endpoint: inhibition (%)
Please state the figure in %; there is no need to write the unit.

What value of measured inhibition is listed for CC(N)C12CC3CC(CC1C3)C2 (racemic) ?
93.2

Would you mind telling me what inhibition value was observed for "CNCC12CC3CC(CC1C3)C2" ?
92.2

Request the reported inhibition associated with "NCC12CC3CC(CC1C3)C2"
97.1

Give its inhibition value. Item: "NC12CC3CC(CC(C3)C1)C2"
91

Which inhibition value is on record for C1C2C1C1C3C4C5C6CC6C4C14CNCC54C23 (stereo unspecified) ?
86.5

Which inhibition value is on record for "CC12CC3CC1(C)CC3(N)C2" ?
93.6

Which inhibition value is on record for "CC(=N)NC12C3CCC4C3C3C(CCC31)C42" ?
9.3

Entry "CCN(CC)C12C3CCC4C3C3C(CCC31)C42" : reported inhibition = ?
0

# get_value(readout='inhibition', item= "CNCC12C3CCC4C3C3C(CCC31)C42" )
14.7

What measured inhibition goes with "C1CC2C3C4C5CCC4C24CNCC54C13" ?
39.7

Using the record for "N=C(N)NCC12CC3CC(CC1C3)C2" , report its inhibition.
97.2

Requested field: inhibition. Item: "NC12C3CCC4C3C3C(CCC31)C42"
4.8

Please look up its inhibition: "CNC12CC3CC(CC(C3)O1)C2"
91.7

Quick one: inhibition for "NC12CC3CC(CC(C3)O1)C2" ?
88.2

Which inhibition reading was recorded for the molecule "NCC12C3CCC4C3C3C(CCC31)C42" ?
12.8

Dear colleague, I am looking for the recorded inhibition of the following molecule: "CC12CC3CC1(C)CC3(CN)C2"
97.3

* * *

# measuredOn: Matrix protein 2 (Influenza A virus)
# Sequence (P06821 whole entry): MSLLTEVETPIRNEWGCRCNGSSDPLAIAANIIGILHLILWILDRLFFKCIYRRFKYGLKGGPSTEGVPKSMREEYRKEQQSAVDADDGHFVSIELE
hey, just use T if measured IC50 is less than 10 µM, otherwise F

Input "C1=CC2C3C4C5C=CC4C24CNCC54C13" ; condition: IC50 strictly below 10 µM. Does it hold?
F

Report whether reported IC50 is lower than 10 µM (strictly) for "CNCC12CC3CC(CC1C3)C2"
F

In plain terms, does "NC12CC3CC(CC(C3)O1)C2" come in under 10 µM for IC50?
F

Is IC50 of "NCC12CC3CC(CC1C3)C2" strictly below 10 µM?
T

Report whether reported IC50 is lower than 10 µM (strictly) for "CNC12CC3CC(CC(C3)O1)C2"
F

Does this molecule meet the criterion IC50 < 10 µM? CC(N)C12CC3CC(CC1C3)C2 (racemic)
F

hey, is IC50 for "CC12CC3CC1(C)CC3(CN)C2" lower than 10 µM or not?
T

Answer whether the molecule "NC(N)=NCC12CC3CC(CC1C3)C2" has IC50 strictly less than 10 µM
T
